assay.system: recombinant human PCSK9, V5-, His-tagged (human, UniProt Q8NBP7 31-692, limits assumed)
Sequence (Q8NBP7 31-692 limits assumed): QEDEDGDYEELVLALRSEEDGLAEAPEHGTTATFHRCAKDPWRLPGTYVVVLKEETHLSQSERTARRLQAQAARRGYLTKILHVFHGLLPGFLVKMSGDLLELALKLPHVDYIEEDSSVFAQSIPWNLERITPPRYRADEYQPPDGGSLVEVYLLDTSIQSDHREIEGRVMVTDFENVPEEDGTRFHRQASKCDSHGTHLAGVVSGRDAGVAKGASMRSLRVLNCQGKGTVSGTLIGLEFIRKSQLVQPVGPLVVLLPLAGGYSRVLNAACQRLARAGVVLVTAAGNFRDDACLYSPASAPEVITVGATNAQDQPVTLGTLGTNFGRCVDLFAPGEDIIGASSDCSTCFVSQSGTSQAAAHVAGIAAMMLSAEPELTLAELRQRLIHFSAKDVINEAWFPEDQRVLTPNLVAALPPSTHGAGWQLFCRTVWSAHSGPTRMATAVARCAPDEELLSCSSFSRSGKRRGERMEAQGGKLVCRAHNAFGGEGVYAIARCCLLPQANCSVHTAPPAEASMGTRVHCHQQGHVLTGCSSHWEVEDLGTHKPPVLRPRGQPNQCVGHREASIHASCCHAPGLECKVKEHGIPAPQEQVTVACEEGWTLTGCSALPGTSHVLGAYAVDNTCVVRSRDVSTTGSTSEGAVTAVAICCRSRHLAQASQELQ
measurement.protocol: cell-based or functional assay
observation.type: inhibition of PCSK9-dependent inhibition of cellular LDL uptake (Exopolar assay) (%)
Give bare numbers, in %.

**Q:** I would be grateful if you could share the reported inhibition of PCSK9-dependent inhibition of cellular LDL uptake (Exopolar assay) for 3CX3D02 (Fab, V domains shown, also called 3CX3D02 Fab) VH: QVQLVQSGAEVKKPGESLKISCKGSGYSFTNSWIGWVRQMPGKGLEWMGIIYPSDSYTIYSPSFQGQVTISADKSISTAYLQWSSLKASDTAMYYCARGGGYYYALMDVWAQGTLVTVSS VL: DIQMTQSPSSLSASVGDRVTITCRASQTISTWLNWYQQKPGKAPKLLIYAASSLQSGVPSRFSGSGSGTDFTLTISSLQPEDFATYYCLQDSSLPLTFGQGTKVEIKR .
**A:** 23
